Cited source for all entries: patent US20260234115A1

Organ Mean Total Flux Lung values by entry
- Test system: mouse organs
- Method Summary: In vivo activity screening in mice: organ mean total flux (p/s) of luciferase activity after injection of F2 LNP pools (Table 6, FIG. 7A-7C)
- Test Conditions: Mouse 14, dose 0.5 mg/kg, luciferase mRNA
Marks after values point to notes of the source that are not given here.

| Molecule | Organ Mean Total Flux Lung |
| --- | --- |
| CCCCC/C=C\CCOC(=O)CCCCCC(=O)OCC(COC(=O)CCCCCC(=O)OCC/C=C\CCCCC)(COC(=O)CCCCCC(=O)OCC/C=C\CCCCC)COC(=O)CCC(CCCCCC)OC(=O)NCCN1CCCC1 (stereo not shown) | 14.5 p/s (×10^6) |
| CCCCC/C=C\CCOC(=O)CCCCCC(=O)OCC(COC(=O)CCCCC)(COC(=O)CCCCCC(=O)OCC/C=C\CCCCC)COC(=O)CCC(CCCCCC)OC(=O)NCCN1CCCC1 (stereo not shown) | 20.5 p/s (×10^6) |
| CCCCC/C=C\CCOC(=O)CCCCCC(=O)OCC(COC(=O)CCCCCC(=O)OCC/C=C\CCCCC)(COC(=O)CCC(CCCCCC)OC(=O)NCCN1CCCC1)COC(=O)CC12CC3CC(CC(C3)C1)C2 (stereo not shown) | 6.4 p/s (×10^6) |
| CCCCC/C=C\CCOC(=O)CCCCC(=O)OCC(COC(=O)CCCCC(=O)OCC/C=C\CCCCC)(COC(=O)CCC(CCCCCC)OC(=O)NCCN1CCCC1)COC(=O)CC12CC3CC(CC(C3)C1)C2 (stereo not shown) | 12.6 p/s (×10^6) |
| CCCCC/C=C\CCOC(=O)CCCCCCC(=O)OCC(COC(=O)CCCCCCC(=O)OCC/C=C\CCCCC)(COC(=O)CCCCCCC(=O)OCC/C=C\CCCCC)COC(=O)CCC(CCCCCC)OC(=O)NCCN1CCCC1 (stereo not shown) | 16.2 p/s (×10^6) |
| CCCCC/C=C\CCOC(=O)CCCCC(=O)OCC(COC(=O)CCCCC(=O)OCC/C=C\CCCCC)(COC(=O)CCC(CCCC)CCOC(=O)NCCN1CCCC1)COC(=O)CC12CC3CC(CC(C3)C1)C2 (stereo not shown) | 33.8 p/s (×10^6) |
| CCCCC/C=C\C/C=C\CCCCCCCCC(CCCCCCCC/C=C\C/C=C\CCCCC)OC(=O)CCCN(C)C [MC3, reference compound] | 19.3 p/s (×10^6) |

====

- Method Summary: Dynamic light scattering: LNP particle size and PDI
- Assay type: physicochemical
- Test Conditions: LNP, Formulation F4, N/P 3
Assay Endpoint: Size (nm) N/P:3

| Compound | Assay Endpoint | Result |
| --- | --- | --- |
| CCCCC/C=C\C/C=C\CCCCCCCC(=O)OCC(COC(=O)CCCCCCC/C=C\C/C=C\CCCCC)(COC(=O)CCC(CCCCCC)OC(=O)NCCN1CCCC1)COC(=O)CCC(OCCCCCCCC)OCCCCCCCC (stereo not shown) | Size (nm) N/P:3 | 65 ± 1 nm |
| CCCCCCCC/C=C\CCCCCCCC(=O)OCC(COC(=O)CCCCCCC/C=C\CCCCCCCC)(COC(=O)CCCCCCC/C=C\CCCCCCCC)COC(=O)CCC(CCCCCC)OC(=O)NCCN1CCCC1 (stereo not shown) | Size (nm) N/P:3 | 78 ± 1 nm |
| CCCCC/C=C\CCOC(=O)CCCCCCC(=O)OCC(COC(=O)CCCCCCC(=O)OCC/C=C\CCCCC)(COC(=O)CCCCCCC(=O)OCC/C=C\CCCCC)COC(=O)CCC(CCCCCC)OC(=O)NCCN1CCCC1 (stereo not shown) | Size (nm) N/P:3 | 92 ± 4 nm |
| CCCCCCCC/C=C\CCCCCCCC(=O)OCC(COC(=O)CCCCCCC/C=C\CCCCCCCC)(COC(=O)CCC(CCCCCC)OC(=O)NCCN1CCCC1)COC(=O)CCC(OCCCCCCCC)OCCCCCCCC (stereo not shown) | Size (nm) N/P:3 | 73 ± 0 nm |
